System: U2OS
Assay: Multiplex assay against U2OS
Format: toxicity, cell-based
Details: human, 48 h, 1 µM, compound concentration 1 uM, replicate 2
valueType: Total Cell Count
Quick one: just the number, no unit, thanks!

compound: CN1CCN(c2ccc(Nc3c4ccccc4nc4ccccc34)cc2)CC1.Cl.Cl.O
dataValue: 147
--
compound: O=c1ccc2ccc(OCCCCN3CCN(c4cccc5sccc45)CC3)cc2[nH]1
dataValue: 161
--
compound: COCCn1c(C)c(C)s/c1=N\C(=O)C1C(C)(C)C1(C)C
dataValue: 218

Now examine the next entry.
Exam item: Requested field: Total Cell Count. Item: CN1C[C@H](C(=O)N[C@]2(C)O[C@@]3(O)[C@@H]4CCCN4C(=O)[C@H](Cc4ccccc4)N3C2=O)C[C@@H]2c3cccc4[nH]cc(c34)C[C@H]21.CS(=O)(=O)O [DIHYDROERGOTAMINE MESYLATE]
Marked response: 173
